- Test system: α7 integrin promoter
- PROCEDURE_SUMMARY: muscle cell-based assay: α7βgal+/− myoblasts/myotubes, LacZ reporter, β-galactosidase cleavage of FDG
- Parameters: species or system mouse; scale not given here
- TEST_CONTEXT: Myoblasts, 10 uM
READOUT_KIND: Results in α7+/− β-galactosidase assay
Give only the figure.

What measured Results in α7+/− β-galactosidase assay is associated with CC1(C)Cc2c(c(N3CCOCC3)nc3sc(C(=O)Nc4ccccc4)c(N)c23)CO1 [drawing 538] on α7 integrin promoter?
−0.7131

Kindly state the measured Results in α7+/− β-galactosidase assay obtained for COc1ccc(C(=O)/C=C2\C(=O)Nc3ccccc32)cc1OC [drawing 628] with α7 integrin promoter.
0.1545

API: value(readout=Results in α7+/− β-galactosidase assay, system=α7 integrin promoter) for record COc1ccc(N2CCN(C(=O)c3cc(C)on3)CC2)cc1 [drawing 539]
0.01243

For the record c1ccc(-c2nn[nH]n2)nc1 [drawing 616] , what value of Results in α7+/− β-galactosidase assay is listed for α7 integrin promoter?
−0.06661

// map Cc1ccc(C(=O)N2CCN(S(=O)(=O)N3CCOCC3)CC2)cc1 [drawing 642] to recorded Results in α7+/− β-galactosidase assay (system: α7 integrin promoter)
−0.06877

Observed Results in α7+/− β-galactosidase assay on α7 integrin promoter for CC(C)(C)c1ccc(C(=O)OCC(=O)Nc2sc3c(c2C#N)CCC3)cc1 [drawing 678] , please.
−0.02658

Recorded Results in α7+/− β-galactosidase assay for Cc1ccc(Cn2nnc3c(O)nc(C4CCCN(C(=O)c5ccco5)C4)nc32)cc1 (stereo not shown) [drawing 683] with α7 integrin promoter, please?
−0.00668

Lookup: Results in α7+/− β-galactosidase assay / α7 integrin promoter / CCOC(=O)c1nnn(-c2nonc2OC)c1-c1ccccc1 [drawing 552]
−0.08302

// map CCO/C(C)=C1\C(=O)Nc2ccccc21 [drawing 705] to recorded Results in α7+/− β-galactosidase assay (system: α7 integrin promoter)
0.09535

Give recorded Results in α7+/− β-galactosidase assay with α7 integrin promoter for the following compound: Cc1ccccc1S(=O)(=O)N1C[C@H]2CON(C)[C@H]2C[C@H]1c1cccc(-c2ccccc2)c1 [drawing 644]
0.08987

# value lookup — system α7 integrin promoter, readout Results in α7+/− β-galactosidase assay, item COc1ccccc1/C=C1\C(=O)Nc2ccccc21 [drawing 700]
0.312

I'm curious: which Results in α7+/− β-galactosidase assay was measured for CC(C)Oc1ccc(C(=O)/C=C2\C(=O)Nc3ccccc32)cc1 [drawing 531] tested on α7 integrin promoter?
−0.6765

What is its Results in α7+/− β-galactosidase assay for α7 integrin promoter? Entry: COC(=O)c1ccccc1CC(=O)CSc1nc(O)c(-c2ccccc2)c(O)n1 [drawing 666]
0.1141

Quick check: Results in α7+/− β-galactosidase assay on α7 integrin promoter, item COc1ccc(CNC(=O)C2CCCN(S(=O)(=O)c3c(C)noc3/C=C/N(C)C)C2)cc1 (stereo not shown) [drawing 579] ?
−0.2043

I'm curious: which Results in α7+/− β-galactosidase assay was measured for CC(=O)C1=C(C)Nc2ncnn2C1c1ccc(C)cc1 (stereo not shown) [drawing 655] tested on α7 integrin promoter?
−0.01305

Request - read-out Results in α7+/− β-galactosidase assay | tested on α7 integrin promoter | compound COC(=O)c1cc(S(=O)(=O)NCC2CCN(Cc3ccc(Cl)cc3)CC2)cn1C [drawing 672]
−0.03865

Item: CC(C)(C)c1csc(NC(=O)c2cccnc2)n1 [drawing 663] Test system: α7 integrin promoter Read-out: Results in α7+/− β-galactosidase assay Value: ?
0.06663

Given the entry CC(C)Oc1cccc(C(=O)Nc2ccc(CN3CCOCC3)cc2)c1 [drawing 563] , what Results in α7+/− β-galactosidase assay was observed with α7 integrin promoter?
0.2092

Which measured Results in α7+/− β-galactosidase assay belongs to CCN(C(=O)c1ccc(S(=O)(=O)N(C)C)cc1)C(C)C(=O)Nc1ccc(C)cc1 (stereo not shown) [drawing 556] , tested on α7 integrin promoter?
0.2444
